# PROTOCOL SUMMARY: inhibitors of TNFa-induced NFkB p65 translocation, primary screen, imaging, HUVEC, MLSMR starter and 10KST1 sets (AID 438);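 note: compound added about 3h40 before a 20 min TNFalpha stimulation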;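 for inhibition: signal is the nuclear over cytoplasmic p65 intensity ratio per well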
# ASSAY SETUP: HUVEC TNFa-induced p65 nuclear translocation; at 2 µM, stronger effect = higher value, 0% TNFa-plus-vehicle, 100% no-TNFa wells
PARAMETER MEASURED: inhibition (%)
Answer with a number only, understood to be in %.

Previously resolved entries follow.
CCC(C)(C)n1nnnc1C(c1cc2cc(C)ccc2[nH]c1=O)N1CCCC1 (configuration not stated); 4.2
COc1ccccc1Cn1c(-c2ccco2)nc2nc3ccccc3nc21; -10.5
Cc1cccc(NC(=O)C2CCCN(C(=O)Nc3ccccc3)C2)c1C (configuration not stated); -28.6
CCOc1ccc(-c2nc(C#N)c(NCc3ccc4c(c3)OCO4)o2)cc1; 1.8
Cc1cc(NC(=O)CCC(=O)N(CC(=O)NC2CCCC2)Cc2ccc(F)cc2)no1; 0.8
CCOc1cc(C2NC(=O)NC(O)(C(F)(F)F)C2C(=O)c2ccccc2)ccc1OC (configuration not stated); 6.8

QUERY: Any idea what its inhibition is? The compound is O=C(NCC1CCCO1)C1c2ccccc2C(=O)N1C1CCCCCC1 (configuration not stated)
RESULT: -9.2

QUERY: And for CSc1nc(C)cc(OCC(=O)N2CCOCC2)n1 ?
RESULT: -7.5

QUERY: And for COc1ccc(OCC(O)Cn2c(Br)nc3c2c(=O)[nH]c(=O)n3C)cc1 (configuration not stated) ?
RESULT: 2.4

QUERY: And for O=C(Oc1ccc2ccc(OC(=O)N3CCOCC3)cc2c1)N1CCOCC1 ?
RESULT: 6.8

QUERY: And for CCOc1ccc(Oc2nc(Nc3ccc(C)cc3)nc(N(C)C)n2)nn1 ?
RESULT: -0.3

QUERY: And for COc1cccc(OC)c1OCCCSc1nc(C)cc(=O)[nH]1 ?
RESULT: -1.6

###

Quick reference: fluorescence slope of the listed items.
# SYSTEM: Voltage-gated potassium channel subunit beta-2 (Rattus norvegicus)
# PROTOCOL SUMMARY: inhibitors of rat Kvbeta2 reductase activity – biochemical, NADPH fluorescence, primary screen (AID 622);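 note: slope of raw intensity against log time taken from 70 to 1610 s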
# ASSAY SETUP: recombinant KvBeta, 4-cyanobenzaldehyde reduction, at 10 µM, stronger effect = higher value
Respond using a number only.

Cc1cc(C)nc(N2CCC(C(=O)NC3CCCCCC3)CC2)n1; -0.508

QUERY: Query fluorescence slope on Voltage-gated potassium channel subunit beta-2 (Rattus norvegicus) for Cc1oc(-c2ccccc2F)nc1CS(=O)(=O)CC(=O)N1CCN(Cc2ccccc2)CC1
RESULT: -0.498

QUERY: And for CCN(C1CCCCC1)S(=O)(=O)c1ccc(OC)c(C)c1 ?
RESULT: -0.498

###

# PROTOCOL SUMMARY: inhibitors of TNFa-induced NFkB p65 translocation, primary screen, imaging, HUVEC, MLSMR starter and 10KST1 sets (AID 438);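 note: compound added about 3h40 before a 20 min TNFalpha stimulation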
# ASSAY SETUP: HUVEC TNFa-induced p65 nuclear translocation; measured here: nuclei count (cytotoxicity indicator), at 2.08 µM
Could you please classify the records by cell count using these ranges: low value: < 400; medium value: ≥ 400 and < 600; high value: ≥ 600

Cc1cnn(Cc2ccccc2)c1N; high value
COCc1ccccc1Cn1cnc2c1c(=O)n(C)c(=O)n2C; low value
CCc1ccc(N2CC34C=CC(O3)C(C(=O)OC)C4C2=O)cc1 (stereo unspecified); medium value
COc1ccc(CN(Cc2cc3cc4c(cc3[nH]c2=O)OCO4)C(=O)NC2CCCCC2)cc1; low value
O=S(c1ccsc1)c1ccsc1; medium value

QUERY: Band of O=C(CN1C(=O)CC(c2ccco2)Sc2ccccc21)Nc1ccccc1F (stereo unspecified) ?
RESULT: medium value

QUERY: And for O=C(c1ccc(Cl)cc1)N1CCCCC(Sc2nnc(-c3ccc4c(c3)OCO4)o2)C1=O (stereo unspecified) ?
RESULT: medium value

QUERY: And for CCOC(=O)c1ccccc1NC1c2ccccc2C(=O)N1C1CCN(C(=O)OCC)CC1 (stereo unspecified) ?
RESULT: medium value

QUERY: And for Cc1cc2cc(CCNC(=O)CC(C)C)c(=O)[nH]c2cc1C ?
RESULT: high value

###

Quick reference: inhibition of the listed items.
# PROTOCOL SUMMARY: TLR3 IRF3 reporter activation blockers – cell-based, poly I:C stimulus, luciferase, 10K MLSCN set, primary screen (AID 602277)
# ASSAY SETUP: HEK293-TLR3 RL24 IRF3 luciferase reporter, at 10 µM, stronger effect = higher value
Answer with a number only, understood to be in %.

Previously resolved entries follow.
Cc1cc(=O)n(-c2ccc3ccccc3n2)[nH]1; 9.22
C=CCn1c(SCC2=C(C(=O)OCC)C(C)NC(=O)N2)nnc1C1CCCCC1 (stereo not drawn); 27.1
Cc1nnc(SCC(=O)N2c3ccccc3CC2C)s1 (stereo not drawn); -5.96

QUERY: Any idea what its inhibition is? The compound is c1ccc2c(c1)sc1nnnn12
RESULT: 27.2

QUERY: And for Cc1cccc(-c2cc3nc4c(c(N5CCC6(CC5)OCCO6)n3n2)CCCC4)c1 ?
RESULT: -27.3

QUERY: And for CN(Cc1ccccc1)S(=O)(=O)c1ccc(S(=O)(=O)N2CCN(CCC#N)CC2)cc1 ?
RESULT: 11.4

QUERY: And for Cc1ccc(-c2oc3ccccc3c(=O)c2O)cc1 ?
RESULT: -26.8

QUERY: And for O=C(OCC(=O)c1ccccc1Br)c1ccccn1 ?
RESULT: 26.5

###

# SYSTEM: Voltage-gated potassium channel subunit beta-2 (Rattus norvegicus) (UniProt P62483)
# Sequence (P62483 whole entry, looked up): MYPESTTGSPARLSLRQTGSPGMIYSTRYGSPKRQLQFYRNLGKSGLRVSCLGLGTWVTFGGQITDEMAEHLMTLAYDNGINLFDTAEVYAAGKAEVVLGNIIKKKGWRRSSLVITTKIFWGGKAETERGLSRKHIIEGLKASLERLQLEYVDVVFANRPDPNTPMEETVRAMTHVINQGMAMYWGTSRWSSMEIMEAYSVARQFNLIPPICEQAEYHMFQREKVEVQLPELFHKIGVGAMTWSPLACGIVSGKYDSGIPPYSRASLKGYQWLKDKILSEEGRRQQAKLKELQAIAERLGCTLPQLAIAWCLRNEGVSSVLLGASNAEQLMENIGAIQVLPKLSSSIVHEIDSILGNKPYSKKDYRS
# PROTOCOL SUMMARY: inhibitors of rat Kvbeta2 reductase activity – biochemical, NADPH fluorescence, primary screen (AID 622);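 note: slope of raw intensity against log time taken from 70 to 1610 s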
# ASSAY SETUP: recombinant KvBeta, 4-cyanobenzaldehyde reduction, at 10 µM, stronger effect = higher value
PARAMETER MEASURED: fluorescence slope
Respond using a number only.

O=C(C1CCC(CNc2c(N3CCCCC3)c(=O)c2=O)CC1)N1CCc2ccccc2C1 (stereo not given); -0.51
CC1(C)CC(=O)CC(=Nc2ccc(C(=O)O)cc2)C1; -0.497
CCn1c(Cc2ccccc2)nnc1SCC(=O)Nc1cc(C)on1; -0.513
CC(=O)C(Sc1ncnc2c1nnn2-c1ccc(F)cc1)C(=O)N(C)C (stereo not given); -0.492

Then there is this compound:
QUERY: Any idea what its fluorescence slope is? The compound is CCN1C(=O)CC(C(=O)Nc2ccc(F)cc2)SC1=Nc1ccc2c(c1)OCO2 (stereo not given)
RESULT: -0.504

###

Quick reference: inhibition of the listed items.
# PROTOCOL SUMMARY: TLR3 IRF3 reporter activation blockers – cell-based, poly I:C stimulus, luciferase, 10K MLSCN set, primary screen (AID 602277)
# ASSAY SETUP: HEK293-TLR3 RL24 IRF3 luciferase reporter, at 10 µM, stronger effect = higher value
Answer with a number only, understood to be in %.

Previously resolved entries follow.
Cc1ccccc1N(C)S(=O)(=O)c1ccc2[nH]cc(C(=O)NCC3CCCO3)c(=O)c2c1 (stereo not given); 14.4
CC1CN(S(=O)(=O)c2ccc(Cl)c(C(F)(F)F)c2)CC(C)O1 (stereo not given); 0.275
Nc1nc(SCc2ccc(Cl)cc2Cl)n[nH]1; -30.1

QUERY: Any idea what its inhibition is? The molecule is [O-][n+]1c2ccc3nonc3c2nn1-c1ccccc1Cl
RESULT: -2.81

QUERY: And for CC(C)Cn1c(N)c(C(=O)COC(=O)c2cc(-c3ccco3)nc3ccccc23)c(=O)n(C)c1=O ?
RESULT: -3.29

These measurements were taken from PubChem BioAssay.
